System: A549
Assay: Cytotoxicity against human A549 cells after 72 hrs by resazurin based fluorescence assay
Type: functional, cell-based
Details: Homo sapiens, A549, 72 h
pIC50: −log10 of the molar value.
The following molecules are shown together with reported pIC50 values.

Reference set (4 entries):
[[record]]
cpd_smiles = "COc1ccc(-c2cccc(-c3ccc(O)cc3)n2)cc1"
observable = "pIC50"
result = "< 4.60"

[[record]]
cpd_smiles = "COc1ccc(-c2cccc(-c3ccc(O)cc3)n2)cc1OC"
observable = "pIC50"
result = "< 4.00"

[[record]]
cpd_smiles = "COc1cc(-c2ccc(-c3cc(OC)c(OC)c(OC)c3)nc2)cc(OC)c1OC"
observable = "pIC50"
result = "< 4.00"

[[record]]
cpd_smiles = "COc1ccc(/C=C\\c2cc(OC)c(OC)c(OC)c2)cc1O"
observable = "pIC50"
result = 8.42


Moving on to the next molecule.
Per the records, this molecule ( COc1ccc(-c2cccc(-c3cc(OC)c(OC)c(OC)c3)n2)cc1OC ) has pIC50 equal to < 4.30
